Data origin, for the record: ChEMBL document CHEMBL3758075

For each of the compounds below, state its Stability.
experiment: Aqueous stability in pH 7.4 HEPES buffer assessed as prodrug remaining at 100 uM after 2 hrs by HPLC method; assay type: physicochemical; conditions: pH 7.4, 2 h
Numeric only. Scale: %

Would you mind telling me what Stability value was observed for CC(=O)O[C@H]1[C@@H](F)[C@H](n2cnc3c(N)ncnc32)O[C@@H]1CNS(=O)(=O)NC(=O)c1ccccc1O.CCN(CC)CC ? 92

CCCCCCCC(=O)O[C@H]1[C@@H](F)[C@H](n2cnc3c(N)ncnc32)O[C@@H]1CNS(=O)(=O)NC(=O)c1ccccc1O.CCN(CC)CC , same question. 98

CCC(=O)O[C@H]1[C@@H](F)[C@H](n2cnc3c(N)ncnc32)O[C@@H]1CNS(=O)(=O)NC(=O)c1ccccc1O.CCN(CC)CC , same question. 100

CCCCC(=O)O[C@H]1[C@@H](F)[C@H](n2cnc3c(N)ncnc32)O[C@@H]1CNS(=O)(=O)NC(=O)c1ccccc1O.CCN(CC)CC , same question. 100

CC(C)C(=O)O[C@H]1[C@@H](F)[C@H](n2cnc3c(N)ncnc32)O[C@@H]1CNS(=O)(=O)NC(=O)c1ccccc1O.CCN(CC)CC , same question. 100

CCC(CC)C(=O)O[C@H]1[C@@H](F)[C@H](n2cnc3c(N)ncnc32)O[C@@H]1CNS(=O)(=O)NC(=O)c1ccccc1O.CCN(CC)CC , same question. 100

CCCCCCCCCCCC(=O)O[C@H]1[C@@H](F)[C@H](n2cnc3c(N)ncnc32)O[C@@H]1CNS(=O)(=O)NC(=O)c1ccccc1O.CCN(CC)CC , same question. 100

CCCC(=O)O[C@H]1[C@@H](F)[C@H](n2cnc3c(N)ncnc32)O[C@@H]1CNS(=O)(=O)NC(=O)c1ccccc1O.CCN(CC)CC , same question. 100

###

For each of the compounds below, state its Stability.
test: Aqueous stability in pH 1.2 simulated gastric fluid assessed as prodrug remaining at 100 uM after 2 hrs by HPLC method; type: physicochemical; conditions: simulated gi fluid, pH 1.2, 2 h
Numeric only. Scale: %

Would you mind telling me what Stability value was observed for CC(C)C(=O)O[C@H]1[C@@H](F)[C@H](n2cnc3c(N)ncnc32)O[C@@H]1CNS(=O)(=O)NC(=O)c1ccccc1O.CCN(CC)CC ? 98

CCCC(=O)O[C@H]1[C@@H](F)[C@H](n2cnc3c(N)ncnc32)O[C@@H]1CNS(=O)(=O)NC(=O)c1ccccc1O.CCN(CC)CC , same question. 97

CCCCC(=O)O[C@H]1[C@@H](F)[C@H](n2cnc3c(N)ncnc32)O[C@@H]1CNS(=O)(=O)NC(=O)c1ccccc1O.CCN(CC)CC , same question. 98

CCC(CC)C(=O)O[C@H]1[C@@H](F)[C@H](n2cnc3c(N)ncnc32)O[C@@H]1CNS(=O)(=O)NC(=O)c1ccccc1O.CCN(CC)CC , same question. 100

###

experiment: Aqueous stability in pH 1.2 simulated gastric fluid assessed as prodrug remaining at 100 uM after 2 hrs by HPLC method; assay type: physicochemical; settings: simulated gi fluid, pH 1.2, 2 h
REPORTED_PROPERTY: Stability (%)
Numeric only. Scale: %

Would you mind telling me what Stability value was observed for CCCCCCCCCCCC(=O)O[C@H]1[C@@H](F)[C@H](n2cnc3c(N)ncnc32)O[C@@H]1CNS(=O)(=O)NC(=O)c1ccccc1O.CCN(CC)CC ? 76

CCC(=O)O[C@H]1[C@@H](F)[C@H](n2cnc3c(N)ncnc32)O[C@@H]1CNS(=O)(=O)NC(=O)c1ccccc1O.CCN(CC)CC , same question. 97

CC(=O)O[C@H]1[C@@H](F)[C@H](n2cnc3c(N)ncnc32)O[C@@H]1CNS(=O)(=O)NC(=O)c1ccccc1O.CCN(CC)CC , same question. 97

CCCCCCCC(=O)O[C@H]1[C@@H](F)[C@H](n2cnc3c(N)ncnc32)O[C@@H]1CNS(=O)(=O)NC(=O)c1ccccc1O.CCN(CC)CC , same question. 93
